- targetOrSystem: Ecm16* (Streptomyces lasalocidi (insertion domain from Streptomyces peucetius DrrC)) (UniProt Q0X0A9)
- testName: fluorescence polarization
- runConditions: echinomycin-bound DNA, apparent KD, Hill fit, FP: 50 mM HEPES pH 7.5, 50 mM NaCl, 50 nM DNA, 4-512 nM protein, temperature not stated, EMSA: same buffer plus 0.1 mg/ml BSA
measuredParameter: Kd (nM)

INSERT INTO measurements (sequencedata, measuredparameter, quantitativereadout) VALUES
  ('AGTGATCAGTGGTTACGTAACCACTGATCACT (double strand) [FAM 32-bp DNA]', 'Kd', 37.7);

Entry source: paper PMC10192343
